# Tested on: 435261-313-R-J1-PDC tumor spheroid viability;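 note: spheroids exposed to compounds for 7 days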
# method.description: Anticancer human tumor 435261-313-R-J1-PDC patient-derived colon adenocarcinoma cell line growth inhibition [PI3K]
# reported.conditions: curve of first compound; second compound 10 µM; spheroids with HUVEC and MSC
Exercise: for every item that follows, state its recorded pIC50.
Numbers only, as −log10 of the molar value.

# molecule, pIC50
data = [
    ("CC(=O)c1c(C)c2cnc(Nc3ccc(N4CCNCC4)cn3)nc2n(C2CCCC2)c1=O + CC(Nc1ncnc2nc[nH]c12)c1cc2cccc(Cl)c2c(=O)n1-c1ccccc1", 7.46),
]

Provide reported pIC50 for each item, in the same order as listed.
1. Cn1ncnc1[C@H]1c2n[nH]c(=O)c3cc(F)cc(c23)N[C@@H]1c1ccc(F)cc1 + CC(Nc1ncnc2nc[nH]c12)c1cc2cccc(Cl)c2c(=O)n1-c1ccccc1
2. Cn1nccc1Nc1nccc(-c2ccn(C(CO)c3ccc(Cl)c(F)c3)c(=O)c2)n1 (stereo not drawn) + CC(Nc1ncnc2nc[nH]c12)c1cc2cccc(Cl)c2c(=O)n1-c1ccccc1

[A]
9.14
7.16
